Items are presented alongside their recorded melting point.

Sample answers from the record:
COc1ccc(CSc2cccc(Cl)c2CN(C)C)cc1 | 101 to 104 °C
COc1cc(OC(C)C)cc2oc(C)cc(=S)c12 | 113 to 114 °C
CC(C)(O)C(O)c1ccc(-c2ccc(C(CC3CCOCC3)c3ccc(S(C)(=O)=O)c(Cl)c3)[nH]2)nc1 (stereo unspecified) | 138 to 140 °C
CSc1nc(C)cc(Cl)n1 | 37 to 38 °C
C=Cc1cc(O)cc2nc(-c3ccc(O)c(F)c3)oc12 | 249 to 251 °C

Problem: Record request: melting point value, item N#Cc1cc(C(O)CNC2CCCC2)ccc1N (stereo unspecified)
Result: 158 to 160 °C

Problem: Request the reported melting point associated with COC(=O)NCCCn1c(-c2ccc(Br)cc2)csc1=Nc1ccccc1
Result: 132 to 134 °C

Problem: For Cc1ccc(-c2cc(Br)c3[nH]c(=O)ccc3c2)c(C)n1 , what is its reported melting point?
Result: 212 to 215 °C

Problem: Quick check: melting point of Cc1cc(F)ccc1-c1nc(-c2cn(N)c(=O)[nH]c2=O)nc2c1ccc(=O)n2-c1c(F)cccc1F ?
Result: > 300 °C

Problem: Quick check: melting point of CCc1[nH]nc2c1C(=O)c1c(NC(N)=O)cccc1-2 ?
Result: > 250 °C

Problem: Fill in: melting point of CCSC1=NCC(=O)N1c1ccc(C)c(Cl)c1 is ___
Result: 133 to 135 °C

----------
melting point listing for selected compounds.

COc1ccc(N(C(=O)c2ccc3ccccc3c2)c2ccc(OCc3ccccc3)cc2)cc1 | 175 to 176 °C

Problem: What does the data say about its melting point? Entry: COc1nnc(-c2ccc3occ(-c4ccc(OC(F)(F)F)cc4)c3c2)o1
Result: 143 to 144 °C

Problem: // melting point lookup, key: Nc1ccccc1SCC(C(=O)O)c1ccc(C(F)(F)F)cc1 (stereo not given)
Result: 138 °C

Problem: Reported melting point for OCCN1CCN(C2=Nc3cc(F)ccc3Nc3ccsc32)CC1 : what is it?
Result: 205 to 210 °C

Problem: Which value of melting point has been reported for CC(C)(O)c1cccc(OCc2nc3cc(F)ccc3s2)c1 in the records?
Result: 124 to 125 °C

Problem: Name the recorded melting point for CCCCNC(=O)Oc1ccc(Oc2ccccc2)cc1C(=O)OC .
Result: 53 to 56 °C

Problem: Quick one: melting point of COC(=O)/C(=C/c1cccc(C=O)c1)NC(=O)OCc1ccccc1 ?
Result: 77 to 83 °C

----------
Property: melting point

Examples from the recorded data:
CCCCn1c(N)nc2ccc(C3CCc4cncn43)cc21 (stereo not given) | 196 °C
N#Cc1ccc(C=Cc2ccc(-c3cc4ccccc4o3)cc2)cc1 | 314 to 315 °C
O=C(N[C@H](Cc1ccc(C(F)(F)F)cc1)[C@@H](O)c1ccoc1)c1ccc(F)c2ccccc12 (racemic) | 206 to 207 °C

Problem: Need melting point, item Cc1cccc2c3c([nH]c12)CCCC3=O
Result: > 247 °C

Problem: What does the data say about its melting point? Entry: Cc1nc(NC(=O)c2ccccc2)sc1C(=O)NCc1ccccc1Cl
Result: 191 to 193 °C

Problem: Give the measured melting point of CC(=O)Nc1c(-c2c(F)cc(F)cc2F)c(Cl)nc2ncnn12 .
Result: 108 to 111 °C

Problem: Please look up its melting point: Cc1csc2ccc3[nH]c4c(c3c12)CN(C(C)C)CC4
Result: 199 to 203 °C

Problem: // returns reported melting point for input CN1Cc2ccccc2C(c2ccccc2)N=C1Cc1ccc(NS(C)(=O)=O)cc1 (stereo not given)
Result: 182 to 185 °C

Problem: melting point lookup needed for Cc1ccc(CNC(=O)c2ccc3n2Cc2ccccc2N(C(=O)c2ccc(-c4ccccc4C)c(C)c2)C3)c(C)c1 , thanks.
Result: 159 to 161 °C

Problem: Name the recorded melting point for O=C(O)[C@H](Cc1ccc(C(F)(F)F)cc1)[C@H](O)c1ccc(F)cc1 (racemic) .
Result: 111 to 112 °C

Problem: Fill in the blank: the reported melting point of Cc1c(CC(=O)O)c2cc(C(=O)C(C)C)cc3c2n1CCC3 is ____.
Result: 162 °C

----------
Listing of recorded melting point by entry.

Clc1nc2ccccc2c2[nH]c3ccccc3c12 | 249 to 250 °C
C(=Cc1nc(CNc2ccc(CCCCn3ccnn3)cc2)co1)c1ccc2c(c1)OCO2 | 130 to 131 °C
COc1cc(-c2c(Cl)c(CN3C(=O)CCC3=O)nc3sc4c(c23)CCNC4)ccc1OC(C)C | 175 to 176 °C
O=C(CCl)NC(NC(=O)c1ccccc1)C(Cl)(Cl)Cl (stereo not given) | 211 to 213 °C

Problem: Param item = COC(=O)c1ccc2c(c1)C(Oc1ccccn1)C(O)C(C)(C)O2 (stereo not given) ; retrieve measured melting point.
Result: 202 to 204 °C

----------
Reported melting point values for a set of compounds

Check out these entries, answers already filled in.
Nc1cc(CO)cc(S(N)(=O)=O)c1Oc1ccccc1 | 170 °C
Cc1c(-c2ccccc2)oc2c(C(=O)NCCCN3CCC(n4c(=O)[nH]c5ccccc54)CC3)cccc2c1=O | 238 to 241 °C
N=c1[nH]c2ccc(Cl)cc2c2nc(-c3ccco3)nn12 | 131 to 133 °C
Nc1cc(=O)n(CCC2=CCCCC2)c(=O)n1CCC1=CCCCC1 | 172 to 174 °C
CC1Nc2cc(NC(=O)c3ccc(-c4ccccc4)cc3)ccc2N1C (centres undefined) | 272 to 274 °C

Problem: Item under review: CCOC(=O)C1=C(COCc2nnn(CCNc3cc(Cl)ncn3)n2)NC(C)=C(C(=O)OC)C1c1cccc(Cl)c1Cl (centres undefined) . Reported melting point?
Result: 160 to 162 °C

Problem: # get_value(readout='melting point', item= CCOC(=O)c1cc(CC)sc1Nc1ccc(Br)cc1[N+](=O)[O-] )
Result: 76 to 78 °C

Problem: Name the recorded melting point for O=c1cnc(-c2cc(-c3ccsc3)cc(-c3ccsc3)c2)nn1CC(F)(F)F .
Result: 189 to 191 °C

Problem: Record request: melting point value, item NC(=O)c1nnn(Cc2ccccc2Cl)c1N
Result: 206 to 208 °C

----------
Property: melting point

CN(C)c1ccc(CNC(=O)c2ccccc2O)cc1 | 129 to 132 °C

Problem: I have this compound here, CN(c1cc2c3c(c1)CCCC3(C)CCC2)c1ncc(C(=O)O)cn1 , and I need its recorded melting point.
Result: > 300 °C

----------
Property: melting point

Reference set, count: 4
COc1cc(/C=C/C=C/CO)ccc1OCc1nc(-c2ccccc2)oc1C | 149 to 151 °C
NCCn1cnc(-c2ccccc2)c1-c1ccccc1 | 96 to 98 °C
CCOc1cc2c(cc1OCC)-c1c(OCC)c(OCC)cc3c1C(C2)N(C)CC3O (stereo not given) | 140 to 142 °C
COC(=O)C(=CNc1ccc(O)cc1)C(=O)C=Cc1ccc2ccccc2c1 | 191 to 192 °C

Problem: Looking for the measured melting point of CC(=O)c1ccc2c(c1)C1(c3ccccc3-2)c2ccccc2-c2ccc(C(C)=O)cc21 , can you help?
Result: 255 to 257 °C

----------
Property: melting point (°C)

[A] CN(CCO)Cc1ccc(-c2ccc(N3C[C@H](Cn4ccnn4)OC3=O)cc2F)cn1
[B] CC(C)(C)OC(=O)N1CCC[C@H]1C(=O)N1CCN(C(=O)c2ccc(C#N)cc2)CC1
Problem: For the two items A and B , which reports the higher melting point value? To answer, give the label that identifies your chosen option.
Result: A

----------
Property: melting point (°C)

C1=C(c2c[nH]c3ccccc23)CCN(CC2COc3ccc4ncccc4c3O2)C1 (stereo not given) | 217
CCOC(=O)/C=C/c1ccc(OCCOC)cc1NC(=O)c1ccc(Cl)cc1Cl | 170
CC(C)N1C(=O)C(C(N)=O)N(c2cc(Cl)cc(Cl)c2)C1=O (stereo not given) | 200
COc1ccc(-c2nc(CCCCCC(C#N)C(=O)O)oc2-c2ccc(OC)cc2)cc1 (stereo not given) | 150
CNC(=O)c1cccc(NC(=O)COc2ccccc2C)c1 | 148

----------
Listed below: melting point values for each entry.

Worked examples, 6 compounds total:
CCOC(=O)c1cnc2cc(OC)c(OC)cc2c1Nc1cccc(Br)c1 | 155 to 158 °C
O=c1cc(-c2ccccc2)sn1-c1nc2ccccc2s1 | 201 to 202 °C
CC(C)c1ccc(NC(=O)OC(C)(C)C)c(N)c1 | 100 to 101 °C
CCOC(=O)c1ccc(NC(=O)c2ccc3c(c2)C(C)(C)CC(=O)N3C)cc1 | 175 to 177 °C
Nc1nc2[nH]c(CCC#Cc3ccc(C(=O)N[C@@H](CCC(=O)O)C(=O)O)o3)cc2c(=O)[nH]1 | 193 to 194 °C
c1ccc2c(c1)ncc1nc(-c3nnn[nH]3)cn12 | 320 to 322 °C

Would you kindly look at the next entry?
Problem: Fill in: melting point of O=C(O)CCc1nc(-c2cc3ccccc3o2)cs1 is ___
Result: 203 to 205 °C

meta.source: a melting point compilation (Tetko et al.; mined from patent text by program, amines drawn as free bases though some values may be those of a salt)
